Every entry's value here was drawn from ChEMBL document CHEMBL4257570.

Test Description: Volume of distribution at steady state in rat at 6 mg/kg, po or 1.2 mg/kg, iv
Assay type: ADME, organism-based
Study Conditions: in vivo, read-out: Vdss
Outcome Measure: Vd (L/kg)
Answers are plain numbers, in L/kg.

Which Vd value belongs to `COc1ccccc1-n1nc(C2CC(C)(C)OC(C)(C)C2)cc1-c1csc(Cl)c1` ? 10.2

###

Test Description: Drug uptake in brain of rat model of complete Freund's adjuvant-induced inflammatory pain at 30 mg/kg, po after 2 hrs
Type: ADME, organism-based
Study Conditions: read-out: Drug uptake
Outcome Measure: concentration at 2 h (nM)
Numbers only, in nM.

Which concentration at 2 h value belongs to `COc1ccccc1-n1nc(C2CC(C)(C)OC(C)(C)C2)cc1-c1ccc(Cl)cc1` ? 1200

###

Give IC50 for every item shown.
Measured On: Voltage-gated inwardly rectifying potassium channel KCNH2 (Homo sapiens)
Sequence (Q12809 whole entry): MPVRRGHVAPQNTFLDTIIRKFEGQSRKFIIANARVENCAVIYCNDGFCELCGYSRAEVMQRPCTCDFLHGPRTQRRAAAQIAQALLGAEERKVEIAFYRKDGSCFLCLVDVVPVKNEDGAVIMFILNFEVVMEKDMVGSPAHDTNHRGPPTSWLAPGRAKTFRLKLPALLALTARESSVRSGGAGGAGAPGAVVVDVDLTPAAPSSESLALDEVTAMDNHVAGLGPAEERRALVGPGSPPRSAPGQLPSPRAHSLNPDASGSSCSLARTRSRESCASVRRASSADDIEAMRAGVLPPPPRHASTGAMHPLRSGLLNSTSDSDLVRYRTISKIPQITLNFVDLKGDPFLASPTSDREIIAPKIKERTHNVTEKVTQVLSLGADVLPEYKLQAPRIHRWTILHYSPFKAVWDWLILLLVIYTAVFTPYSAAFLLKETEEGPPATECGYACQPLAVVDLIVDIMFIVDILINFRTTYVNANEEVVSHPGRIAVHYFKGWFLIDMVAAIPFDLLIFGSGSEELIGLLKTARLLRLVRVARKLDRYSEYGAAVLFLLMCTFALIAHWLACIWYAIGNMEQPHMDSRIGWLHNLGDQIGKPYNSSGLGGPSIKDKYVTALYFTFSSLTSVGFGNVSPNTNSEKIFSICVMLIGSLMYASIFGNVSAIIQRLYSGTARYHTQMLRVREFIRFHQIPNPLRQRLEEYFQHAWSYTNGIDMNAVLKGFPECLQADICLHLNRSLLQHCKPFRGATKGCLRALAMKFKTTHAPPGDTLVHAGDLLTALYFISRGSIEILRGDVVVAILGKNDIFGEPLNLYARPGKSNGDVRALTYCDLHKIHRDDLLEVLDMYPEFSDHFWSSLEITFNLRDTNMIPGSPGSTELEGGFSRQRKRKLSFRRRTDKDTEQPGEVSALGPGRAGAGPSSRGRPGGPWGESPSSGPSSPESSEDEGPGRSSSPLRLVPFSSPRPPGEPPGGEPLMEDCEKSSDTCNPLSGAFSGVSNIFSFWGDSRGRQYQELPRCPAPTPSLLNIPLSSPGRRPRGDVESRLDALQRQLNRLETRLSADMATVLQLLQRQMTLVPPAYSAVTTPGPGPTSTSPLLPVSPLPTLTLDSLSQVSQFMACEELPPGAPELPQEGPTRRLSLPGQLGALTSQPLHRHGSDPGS

Please go through the list and note IC50 for each compound.
1. COc1ccccc1-n1nc(C2CC(C)(C)OC(C)(C)C2)cc1-c1csc(Cl)c1
2. COc1ccccc1-n1nc(C2CC(C)(C)OC(C)(C)C2)cc1-c1ccc(Cl)cc1

1: 26 µM; 2: 20 µM

###

Test Description: Oral bioavailability in rat at 6 mg/kg
Format: ADME, organism-based
Study Conditions: in vivo
Outcome Measure: bioavailability (%)
One number for each entry, in %.

Which bioavailability value belongs to `COc1ccccc1-n1nc(C2CC(C)(C)OC(C)(C)C2)cc1-c1csc(Cl)c1` ? 49

###

Test Description: Drug uptake in spinal cord of rat model of complete Freund's adjuvant-induced inflammatory pain at 30 mg/kg, po after 1 hr
Format: ADME, organism-based
Study Conditions: read-out: Drug uptake
Outcome Measure: concentration at 1 h (nM)
One number for each entry, in nM.

Which concentration at 1 h value belongs to `COc1ccccc1-n1nc(C2CC(C)(C)OC(C)(C)C2)cc1-c1csc(Cl)c1` ? 1900

###

Test Description: Metabolic stability of rat liver microsomes assessed as parent compound remaining after 10 mins
Format: ADME, microsome
Study Conditions: read-out: Stability
Exam item: assign Condition met to entries whose remaining at 10 min is below 20% and Condition not met to entries at or above 20%. Note that a value of exactly 20% receives Condition not met.

Does `COc1ccccc1-n1nc(C2CC(C)(C)OC(C)(C)C2)cc1-c1ccc(Cl)cc1` have remaining at 10 min strictly under 20%? Condition not met

# ---- query compound ----
Does COc1ccccc1-n1nc([C@@H]2CCO[C@H](C(C)C)C2)cc1-c1ccc(Cl)cc1 (relative stereo) have remaining at 10 min strictly under 20%? Condition not met

###

Test Description: AUClast in rat at 10 mg/kg, po
Assay type: ADME, organism-based
Parameters: dose 10 mg/kg, time 0 - last, route oral
Study Conditions: in vivo
Outcome Measure: AUC(0-t) (ng·h/mL)
Answers are plain numbers, in ng·h/mL.

Which AUC(0-t) value belongs to `COc1ccccc1-n1nc(C2CC(C)(C)OC(C)(C)C2)cc1-c1ccc(Cl)cc1` ? 1500

###

Test Description: Clearance in rat at 10 mg/kg, po or 2 mg/kg, iv
Assay type: ADME, organism-based
Study Conditions: in vivo
Outcome Measure: clearance (mL/min/kg)
Numbers only, in mL/min/kg.

Which clearance value belongs to `COc1ccccc1-n1nc(C2CC(C)(C)OC(C)(C)C2)cc1-c1ccc(Cl)cc1` ? 37

###

Measured On: Voltage-dependent N-type calcium channel subunit alpha-1B (Homo sapiens, UniProt Q00975)
Sequence (Q00975 whole entry): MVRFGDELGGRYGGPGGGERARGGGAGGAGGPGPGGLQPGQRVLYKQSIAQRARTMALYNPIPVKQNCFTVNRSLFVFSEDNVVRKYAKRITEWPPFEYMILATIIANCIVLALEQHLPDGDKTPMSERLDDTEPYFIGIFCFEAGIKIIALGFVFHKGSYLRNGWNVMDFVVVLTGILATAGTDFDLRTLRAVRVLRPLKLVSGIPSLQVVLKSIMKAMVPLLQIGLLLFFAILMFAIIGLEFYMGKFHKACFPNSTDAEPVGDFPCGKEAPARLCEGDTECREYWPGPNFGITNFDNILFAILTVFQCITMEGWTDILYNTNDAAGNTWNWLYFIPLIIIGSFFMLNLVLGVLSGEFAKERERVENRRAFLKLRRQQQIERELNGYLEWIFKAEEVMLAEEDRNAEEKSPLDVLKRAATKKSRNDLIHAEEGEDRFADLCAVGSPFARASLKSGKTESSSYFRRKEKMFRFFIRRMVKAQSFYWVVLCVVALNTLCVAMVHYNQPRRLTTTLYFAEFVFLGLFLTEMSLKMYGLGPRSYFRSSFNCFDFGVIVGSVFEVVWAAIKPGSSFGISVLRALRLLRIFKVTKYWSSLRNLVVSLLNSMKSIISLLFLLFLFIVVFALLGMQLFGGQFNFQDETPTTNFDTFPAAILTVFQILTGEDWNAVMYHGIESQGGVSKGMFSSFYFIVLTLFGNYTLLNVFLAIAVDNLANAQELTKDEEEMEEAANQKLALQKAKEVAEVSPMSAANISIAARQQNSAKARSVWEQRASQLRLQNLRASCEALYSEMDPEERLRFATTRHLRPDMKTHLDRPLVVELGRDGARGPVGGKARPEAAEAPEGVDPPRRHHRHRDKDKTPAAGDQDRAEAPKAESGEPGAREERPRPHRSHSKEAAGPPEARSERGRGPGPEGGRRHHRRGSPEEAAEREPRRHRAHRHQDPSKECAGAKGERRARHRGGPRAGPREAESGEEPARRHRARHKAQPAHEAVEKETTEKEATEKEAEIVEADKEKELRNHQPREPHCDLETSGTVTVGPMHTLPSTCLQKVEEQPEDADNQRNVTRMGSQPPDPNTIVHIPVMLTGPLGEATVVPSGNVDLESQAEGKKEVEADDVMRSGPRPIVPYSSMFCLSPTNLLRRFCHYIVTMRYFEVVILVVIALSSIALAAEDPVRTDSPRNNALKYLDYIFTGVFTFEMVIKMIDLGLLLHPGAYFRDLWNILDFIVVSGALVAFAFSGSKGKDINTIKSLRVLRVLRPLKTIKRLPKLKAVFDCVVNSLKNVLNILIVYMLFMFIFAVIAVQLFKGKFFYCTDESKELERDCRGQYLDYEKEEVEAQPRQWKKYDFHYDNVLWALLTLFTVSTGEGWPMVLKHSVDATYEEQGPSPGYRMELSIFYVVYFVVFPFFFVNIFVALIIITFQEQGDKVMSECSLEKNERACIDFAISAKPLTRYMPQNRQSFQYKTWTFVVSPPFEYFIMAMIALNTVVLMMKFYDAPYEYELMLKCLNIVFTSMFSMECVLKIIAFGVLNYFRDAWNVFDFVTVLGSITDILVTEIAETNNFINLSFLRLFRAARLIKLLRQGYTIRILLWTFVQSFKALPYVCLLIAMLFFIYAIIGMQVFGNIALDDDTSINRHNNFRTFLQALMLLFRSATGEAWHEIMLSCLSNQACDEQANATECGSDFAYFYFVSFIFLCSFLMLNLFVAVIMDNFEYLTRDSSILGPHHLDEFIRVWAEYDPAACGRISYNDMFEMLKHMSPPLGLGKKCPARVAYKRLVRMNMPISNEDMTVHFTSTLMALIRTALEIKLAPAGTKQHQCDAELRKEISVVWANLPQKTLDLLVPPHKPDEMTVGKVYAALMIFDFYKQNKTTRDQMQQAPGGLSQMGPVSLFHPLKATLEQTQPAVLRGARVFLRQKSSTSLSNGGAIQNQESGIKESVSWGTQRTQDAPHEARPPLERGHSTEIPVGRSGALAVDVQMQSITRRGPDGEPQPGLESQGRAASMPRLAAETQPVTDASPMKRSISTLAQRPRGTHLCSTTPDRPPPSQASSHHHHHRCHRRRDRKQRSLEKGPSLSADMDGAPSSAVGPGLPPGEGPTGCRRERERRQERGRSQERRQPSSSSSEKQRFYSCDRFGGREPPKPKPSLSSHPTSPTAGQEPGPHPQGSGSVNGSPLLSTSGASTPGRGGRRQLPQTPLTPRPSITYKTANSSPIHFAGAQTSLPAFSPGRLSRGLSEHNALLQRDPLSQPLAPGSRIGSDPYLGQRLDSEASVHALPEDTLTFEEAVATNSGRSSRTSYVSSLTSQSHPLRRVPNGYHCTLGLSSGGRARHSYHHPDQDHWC
Test Description: Inhibition of high frequency stimulation-induced Cav2.2 (unknown origin) expressed in HEK293 cells at -80 mV holding membrane potential by automated patch clamp assay
Format: cell-based
Exam item: assign 1.0 to entries whose IC50 is below 40 nM and 0.0 to entries at or above 40 nM. Note that a value of exactly 40 nM receives 0.0.

The following compounds have reported results that may help.
Does COc1ccccc1-n1nc(C2CCOC(C)(C)C2)cc1-c1ccc(Cl)cc1 (centres undefined) have IC50 strictly under 40 nM? 0.0

Do the same for `COc1ccccc1-n1nc(C2CC(C)(C)OC(C)(C)C2)cc1-c1csc(Cl)c1` please 1.0

Do the same for `COc1ccccc1-n1nc([C@H]2C[C@@H](C)O[C@@H](C)C2)cc1-c1ccc(Cl)cc1` please 1.0

Do the same for `COc1ccccc1-n1nc(C2CC(C)(C)OC(C)(C)C2)cc1-c1ccc(C#N)cc1` please 0.0

Do the same for `COc1ccccc1-n1nc(C2CC(C)(C)OC(C)(C)C2)cc1-c1ccc(Cl)cc1` please 1.0

More entries:
Does `COc1ccccc1-n1nc(C2CC(C)(C)OC(C)(C)C2)cc1-c1ccnc(Cl)c1` have IC50 strictly under 40 nM? 0.0

Do the same for `CCOc1ccc(-c2cc(C3CC(C)(C)OC(C)(C)C3)nn2-c2ccccc2OC)cc1` please 1.0

Do the same for `CCOc1ccc(-c2cc(C3CC(C)(C)OC(C)(C)C3)nn2-c2ccccc2OC)cn1` please 0.0

Do the same for `CCN(CC)c1ccccc1-n1nc(C2CC(C)(C)OC(C)(C)C2)cc1-c1ccc(Cl)cc1` please 0.0

###

Test Description: Plasma concentration in rat model of complete Freund's adjuvant-induced inflammatory pain at 30 mg/kg, po after 1 hr
Assay type: ADME, organism-based
Outcome Measure: concentration at 1 h (nM)
Give bare numbers, in nM.

Which concentration at 1 h value belongs to `COc1ccccc1-n1nc(C2CC(C)(C)OC(C)(C)C2)cc1-c1csc(Cl)c1` ? 1100

###

Test Description: AUClast in rat at 6 mg/kg, po
Format: ADME, organism-based
Design: dose 6 mg/kg, route oral, time 0 - last
Study Conditions: in vivo
Outcome Measure: AUC(0-t)

Which AUC(0-t) value belongs to `COc1ccccc1-n1nc(C2CC(C)(C)OC(C)(C)C2)cc1-c1csc(Cl)c1` ? 2660 ng·h/mL

###

Test Description: Cmax in rat at 10 mg/kg, po
Assay type: ADME, organism-based
Set-up: dose 10 mg/kg, route oral
Study Conditions: in vivo
Outcome Measure: Cmax (ng/mL)
One number for each entry, in ng/mL.

Which Cmax value belongs to `COc1ccccc1-n1nc(C2CC(C)(C)OC(C)(C)C2)cc1-c1ccc(Cl)cc1` ? 127

###

Give pIC50 for every item shown.
Measured On: Voltage-dependent N-type calcium channel subunit alpha-1B (Homo sapiens)
Test Description: Inhibition of low frequency stimulation-induced Cav2.2 (unknown origin) expressed in HEK293 cells at -80 mV holding membrane potential by automated patch clamp assay
Type: cell-based
Answers are plain numbers, as −log10 of the molar value.

Which pIC50 value belongs to `CCOc1ccc(-c2cc(C3CC(C)(C)OC(C)(C)C3)nn2-c2ccccc2OC)cn1` ? 6.70

Do the same for `COc1ccccc1-n1nc([C@H]2C[C@@H](C)O[C@@H](C)C2)cc1-c1ccc(Cl)cc1` please 7.04

Please go through the list and note pIC50 for each compound.
1. COc1ccccc1-n1nc(C2CC(C)(C)OC(C)(C)C2)cc1-c1ccnc(Cl)c1
2. COc1ccccc1-n1nc(C2CC(C)(C)OC(C)(C)C2)cc1-c1ccc(C#N)cc1
3. CCOc1ccc(-c2cc(C3CC(C)(C)OC(C)(C)C3)nn2-c2ccccc2OC)cc1
4. COc1ccccc1-n1nc(C2CC(C)(C)OC(C)(C)C2)cc1-c1ccc(Cl)cc1
5. COc1ccccc1-n1nc(C2CCOC(C)(C)C2)cc1-c1ccc(Cl)cc1 (centres undefined)
6. COc1ccccc1-n1nc(C2CC(C)(C)OC(C)(C)C2)cc1-c1csc(Cl)c1
7. CCN(CC)c1ccccc1-n1nc(C2CC(C)(C)OC(C)(C)C2)cc1-c1ccc(Cl)cc1

1: 6.13; 2: 6.89; 3: 7.21; 4: 7.62; 5: 6.82; 6: 7.21; 7: 6.23

###

Test Description: Half life in rat at 2 mg/kg, iv
Type: ADME, organism-based
Study Conditions: in vivo
Outcome Measure: half-life (h)
Numbers only, in h.

Which half-life value belongs to `COc1ccccc1-n1nc(C2CC(C)(C)OC(C)(C)C2)cc1-c1ccc(Cl)cc1` ? 15.4

###

Test Description: Oral bioavailability in rat at 10 mg/kg
Type: ADME, organism-based
Study Conditions: in vivo
Outcome Measure: bioavailability (%)
Numbers only, in %.

Which bioavailability value belongs to `COc1ccccc1-n1nc(C2CC(C)(C)OC(C)(C)C2)cc1-c1ccc(Cl)cc1` ? 36

###

Test Description: Metabolic stability of human liver microsomes assessed as parent compound remaining after 10 mins
Type: ADME, microsome
Study Conditions: read-out: Stability
Exam item: assign YES to entries whose remaining at 10 min is below 80% and NO to entries at or above 80%. Note that a value of exactly 80% receives NO.

Does `COCCCc1cc(-c2ccc(Cl)cc2)n(-c2ccccc2OC)n1` have remaining at 10 min strictly under 80%? YES

Do the same for `COc1ccccc1-n1nc(C2CCOCC2)cc1-c1ccc(Cl)cc1` please YES

Do the same for COc1ccccc1-n1nc(C2C[C@H](C)O[C@@H](C)C2)cc1-c1ccc(Cl)cc1 (relative stereo) please YES

Do the same for COc1ccccc1-n1nc([C@@H]2CCO[C@@H](C(C)C)C2)cc1-c1ccc(Cl)cc1 (relative stereo) please YES

Do the same for `COc1ccccc1-n1nc(C2CC(C)(C)OC(C)(C)C2)cc1-c1ccc(Cl)cc1` please NO

Do the same for `COc1ccccc1-n1nc([C@H]2C[C@@H](C)O[C@@H](C)C2)cc1-c1ccc(Cl)cc1` please YES

Do the same for `COc1ccccc1-n1nc(C2=CC(C)(C)OC(C)(C)C2)cc1-c1ccc(Cl)cc1` please NO

Do the same for COc1ccccc1-n1nc(C2CCOC(C)(C)C2)cc1-c1ccc(Cl)cc1 (centres undefined) please NO

More entries:
Does COc1ccccc1-n1nc([C@@H]2CCO[C@H](C(C)C)C2)cc1-c1ccc(Cl)cc1 (relative stereo) have remaining at 10 min strictly under 80%? YES
